Test: Chemical stability assessment of peptides (relative purity loss)
Assay type: physicochemical
Conditions: 50 mM HCl pH 1.2 + acetonitrile (1:1); 24 hours at 37° C.
Starred links: 1 amine or outer side, 2 acyl side, 3 side chain; linkers in the order of their positions; H or OH if unused. Positions of bridges follow the written chain, without caps; N, C: chain ends. Non-standard residues stand in square brackets, D forms with d. Residues, ends and D or L forms follow the SMILES beside them. X3 = CN(CCCCC(=O)N[C@@H](CS[*:2])C(=O)[*:1])[*:3]; 2Nal = N[C@@H](Cc1ccc2ccccc2c1)C(=O)O; AEF = NCCOc1ccc(C[C@H](N)C(=O)O)cc1; Aib = CC(C)(N)C(=O)O
Below: a set of entries, each annotated with reported Chemical stability (relative purity loss) Buffer pH 1.2.
Report as a plain number; the unit % is understood.

Completed entries (count: 2):
CC(=O)N[C@H]1CCCCNC(=O)[C@@H]2CSSC[C@H](NC(=O)[C@H](CCC(N)=O)NC(=O)[C@H](Cc3c[nH]c4ccccc34)NC1=O)C(=O)N[C@@H](Cc1ccc(OCCN)cc1)C(=O)N[C@@H](Cc1ccc3ccccc3c1)C(=O)NC(C)(C)C(=O)N[C@H](C(=O)N[C@@H](C)C(=O)N[C@H](CC(C)C)C(N)=O)CCC(=O)N(C)CCCCC(=O)N2 [compound 19] (Ac-KWQC[AEF][2Nal][Aib]EA[dL]-NH2; linker 1-4-8 via X3): 7.9
CC(=O)NCCCC[C@@H]1NC(=O)[C@H](Cc2c[nH]c3c(C)cccc23)NC(=O)[C@H]([C@@H](C)O)NC(=O)[C@H](CC(N)=O)NC(=O)[C@@H]2CSSC[C@H](NC1=O)C(=O)N[C@@H](Cc1ccc(OCCN(C)C)cc1)C(=O)N[C@H](Cc1ccc3ccccc3c1)C(=O)NC1(CCOCC1)C(=O)N[C@H](C(=O)N[C@@H](CC(N)=O)C(=O)N[C@@H](Cc1cccnc1)C(=O)N(C)CC(N)=O)CCC(=O)NCCCCC(=O)N2: 10.1

Let us move to another entry and its Chemical stability (relative purity loss) Buffer pH 1.2.
Sure, the documented Chemical stability (relative purity loss) Buffer pH 1.2 for CC(=O)N[C@H]1CCCCNC(=O)[C@@H]2CSSC[C@H](NC(=O)[C@H](CCC(N)=O)NC(=O)[C@H](Cc3c[nH]c4ccccc34)NC1=O)C(=O)N[C@@H](Cc1ccc(OCCN)cc1)C(=O)N[C@@H](Cc1ccc3ccccc3c1)C(=O)NC(C)(C)C(=O)N[C@H](C(=O)N[C@@H](CC(N)=O)C(=O)NCC(N)=O)CCC(=O)N(C)CCCCC(=O)N2 [compound 15] (Ac-KWQC[AEF][2Nal][Aib]ENG-NH2; linker 1-4-8 via X3) is 14.3
